# tgt: T1, human IL6R (human, UniProt P08887 20-358, limits assumed)
# T1 construct: Antigen of the Biacore experiments
# T1 sequence (looked up): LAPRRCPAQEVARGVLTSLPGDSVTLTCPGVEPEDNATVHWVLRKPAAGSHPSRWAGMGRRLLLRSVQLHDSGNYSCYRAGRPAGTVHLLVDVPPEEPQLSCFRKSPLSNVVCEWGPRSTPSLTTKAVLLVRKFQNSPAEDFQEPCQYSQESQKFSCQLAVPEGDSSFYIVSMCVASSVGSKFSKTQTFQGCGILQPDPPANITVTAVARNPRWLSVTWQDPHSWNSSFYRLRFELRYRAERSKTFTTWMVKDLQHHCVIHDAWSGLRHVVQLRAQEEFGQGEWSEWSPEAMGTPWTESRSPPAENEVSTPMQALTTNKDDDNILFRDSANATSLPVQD
# experiment: SPR (Biacore), periplasmic extract
measured_metric: koff (s⁻¹)
The response must be a number in s⁻¹ with no trailing unit.

Look up koff: IL6R65PMP11G11 (VHH) VHH: EVQLVESGGGLVQPGGSLRLSCAASGTTFKINVMAWYRQAPGKGRELVAAIITSGTTSYADSVKGRFTISRDNAKNTLYLQMNSLRPEDTAVYYCAFVTTNSDYDLGRDYWGQGTLVTVSS
0.0005

Look up koff: IL6R65PMP13B2 (VHH) VHH: EVQLVESGGGLVQPGGSLRLSCAASGTTFKVNIMAWYRQAPGKGRELVAAIITNGSTTYADSVKGRFTISRDNAKNTLYLQMNSLRPEDTAVYYCAFVTTNSDYDLGRDYWGQGTLVTVSS
0.0014

Look up koff: IL6R65PMP11H2 (VHH) VHH: EVQLVESGGGLVQPGGSLRLSCAASGSIFKINVMAWYRQAPGKGRELVAAIINGGTTSYADSVKGRFTISRDNAKNTLYLQMNSLRPEDTAVYYCAFVTTNSDYDLGRDYWGQGTLVTVSS
0.0003

Look up koff: IL6R65PMP13B3 (VHH) VHH: EVQLVESGGGLVQPGGSLHLSCAASGTIFKINVMAWYRQAPGKGRELVAAIITDGSTTYADSVKGRFTISRDNAKNTLYLQMNSLRPEDTAVYYCAFVTTNSDYDLGRDYWGQGTLVTVSS
0.00076
